- TARGET_SYSTEM: HLA-A*24 (human)
- ASSAY_PROCEDURE: UV-exchange ELISA, exchange yield grade
ENDPOINT_NAME: peptide exchange yield

These solved cases illustrate the format of a correct answer.
[[record]]
binder = "KYTHFIQSF [… (SEQ ID NO: 313)]"
observed = "> 75%"

[[record]]
binder = "GYISNGELF [… (SEQ ID NO: 373)]"
observed = "50 to 75%"

[[record]]
binder = "VYQKIILKF [… (SEQ ID NO: 255)]"
observed = "50 to 75%"

[[record]]
binder = "FFHEGQYVF [… (SEQ ID NO: 289)]"
observed = "> 75%"

[[record]]
binder = "RFLMKSYSF [… (SEQ ID NO: 271)]"
observed = "> 75%"

[[record]]
binder = "EYNEVANLF [… (SEQ ID NO: 304)]"
observed = "50 to 75%"

[[record]]
binder = "VYQSLSNSL [… (SEQ ID NO: 194)]"
observed = "50 to 75%"

[[record]]
binder = "QYPYLQAFF [… (SEQ ID NO: 269)]"
observed = "50 to 75%"

[[record]]
binder = "LFITGGQFF [… (SEQ ID NO: 109)]"
observed = "> 75%"

[[record]]
binder = "VYTPVASRQSL [… (SEQ ID NO: 376)]"
observed = "50 to 75%"


Consider the additional binder presented here.
Enquiry: Hello, please tell me recorded peptide exchange yield for this one: VYAEVNSL [VYAEVNSL (SEQ ID NO: 347)]
Return: 50 to 75%
